- Tested on: HCC cell lines
- assayDetails: Proliferation assay in HCC cell lines
- Format: cell-based
- conditionDetails: all cell lines tested
pIC50: −log10 of the molar value.

compound	pIC50
CNC(=O)c1cc(Oc2ccc(NC(=O)Nc3ccc(Cl)c(C(F)(F)F)c3)cc2)ccn1 [sorafenib, reference compound]	5.19 to 5.77

---

- assayDetails: Single dose pharmacokinetics in fasted male C57BL/6 mice (PO or IV)
- Assay type: in vivo, mouse
- conditionDetails: male, C57BL/6, mouse, serum; following a single oral dose

compound	half-life
CNC(=O)c1ccnc(NC(=O)N2CCC(Oc3ccccc3Cl)CC2)c1 [SSI-4]	3 to 4 h

All values here come from patent US11243207B2.
